# Assay Text: Rat pharmacokinetic study
# Format: in vivo, rats
# Condition Parameters: female, Sprague-Dawley, plasma, iv, 1.00 mg/kg, read-out: Vz_F_obs (volume of distribution)
Measured Attribute: Vd (L/kg)
Record the value in L/kg, omitting the unit from your answer.

Reported Vd for COc1cc(C=CC(=O)CC(=O)C=Cc2ccc(O)c(CN3CCCC3)c2)ccc1O [DMC-BH] was 4.9

====

# Assay Text: Rat pharmacokinetic study
# Assay type: in vivo, rats
# Condition Parameters: female, Sprague-Dawley, plasma, iv, 1.00 mg/kg, read-out: Cmax
Measured Attribute: Cmax (ng/mL)
Numeric only. Scale: ng/mL

Cmax measured on `COc1cc(C=CC(=O)CC(=O)C=Cc2ccc(O)c(CN3CCCC3)c2)ccc1O` = 938

====

# System: A172 glioma cells
# Assay Text: MTT cell viability assay, A172
# Assay type: cell-based
# Condition Parameters: Homo sapiens, A 172, 72 hours
Measured Attribute: IC50 (µM)
# value in µM; strip the unit string

Item: `COc1cc(C=CC(=O)CC(=O)C=Cc2ccc(O)c(CN3CCCC3)c2)ccc1O` | System: A172 glioma cells | IC50: 5.68

====

# Test system: U251 glioma cells
# Assay Text: MTT cell viability assay, U251
# Type: cell-based
# Condition Parameters: Homo sapiens, U-251, 72 hours
Measured Attribute: IC50 (nM)
Hi! Could you send only the number? It should be in nM, unit omitted.

# compound COc1cc(C=CC(=O)CC(=O)C=Cc2ccc(O)c(CN3CCCC3)c2)ccc1O [DMC-BH] ; its IC50 = 2520

====

# Tested on: primary glioma cells
# Assay Text: MTT cell viability assay, primary glioma cells
# Assay type: cell-based
# Condition Parameters: 72 h, primary glioma cells sample 2, 72 hours
Measured Attribute: IC50 (µM)
The answer is to be given in µM; state only the numeric part.

Sure, the documented IC50 for COc1cc(C=CC(=O)CC(=O)C=Cc2ccc(O)c(CN3CCCC3)c2)ccc1O [DMC-BH] is 4.61

====

# Assay Text: BBB penetrability (brain-to-plasma AUC ratio)
# Type: in vivo
# Condition Parameters: brain and plasma
Measured Attribute: Kp at 4 h
Lab note: write the figure by itself, no unit.

# Kp at 4 h of `COc1cc(C=CC(=O)CC(=O)C=Cc2ccc(O)c(CN3CCCC3)c2)ccc1O` = 4.6

====

# Assay Text: Rat pharmacokinetic study
# Type: in vivo, rats
# Condition Parameters: female, Sprague-Dawley, plasma, po, i.g., 10.0 mg/kg, read-out: MRTlast (mean residence time)
Measured Attribute: MRT last (h)
Supply the numeric figure in h, leaving out any unit text.

Note to self: MRT last recorded for `COc1cc(C=CC(=O)CC(=O)C=Cc2ccc(O)c(CN3CCCC3)c2)ccc1O` was 4.21

====

# Assay Text: Rat pharmacokinetic study
# Format: in vivo, rats
# Condition Parameters: female, Sprague-Dawley, plasma, iv, 1.00 mg/kg, read-out: Tmax
Measured Attribute: Tmax (min)
Please give a number only; it is taken to be in min.

Summary for this compound, `COc1cc(C=CC(=O)CC(=O)C=Cc2ccc(O)c(CN3CCCC3)c2)ccc1O` : Tmax is 4.8

====

# Assay Text: Rat pharmacokinetic study
# Type: in vivo, rats
# Condition Parameters: female, Sprague-Dawley, plasma, po, i.g., 10.0 mg/kg, read-out: Vz_F_obs (volume of distribution)
Measured Attribute: Vd/F (L/kg)
Provide the reading as a plain figure in L/kg.

COc1cc(C=CC(=O)CC(=O)C=Cc2ccc(O)c(CN3CCCC3)c2)ccc1O [DMC-BH] yielded Vd/F of 54.4
